- Test system: HBV
- assay-notes: Anti-HBV activity, intracellular HBV DNA by real-time PCR (HBV-AVE-HepG2.117)
- Format: cell-based, Hepatitis B virus
- condition-set: Hepatitis B virus, HepG2.117, 72 h, HepG2.117 cell line, 3 days of treatment, intracellular HBV DNA, mean value; read-out: HBV-AVE-HepG2.117 EC50 (μM; mean value)
Record form. Attribute: EC50. Fill in for each entry.
Numbers only, in µM.

Worked cases, EC50 given:
{"molecule": "C[C@H]1[C@@H](C(=O)Nc2ccc(F)c(C(F)(F)F)c2)CCN1C(=O)C(=O)N[C@H](CC(F)(F)F)c1c[nH]nn1 (single isomer, unassigned) [C30R*]", "EC50 / µM": 0.037}
{"molecule": "C[C@H]1[C@@H](C(=O)Nc2ccc(F)c(C(F)F)c2F)CCN1C(=O)C(=O)N[C@H](CC(F)(F)F)c1c[nH]nn1 (single isomer, unassigned) [C31R*]", "EC50 / µM": 0.021}

[in] I would be grateful if you could share the reported EC50 for O=C(NC1(c2c[nH]nn2)CC(F)(F)C1)C(=O)N1CC[C@H](C(=O)Nc2ccc(Cl)c(Cl)c2)C1 .
[out] 0.1
